Listing: %Inh of selected compounds
- Tested on: TYK2(JH2domain-pseudokinase)
- protocol conditions: concentration: 1 μM, replicates: in singlicate; n = 1;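 also: KINOMEscan kinase panel screen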
Return type: number; implicit unit %.

(Q) Form field: reported %Inh of CN(c1ccc(NC(=O)N2CCN(CCCN3CCOCC3)CC2)cc1)c1ccnc(Nc2ccc(CS(C)(=O)=O)cc2)n1.Cl [GW830899]
(A) 22

(Q) Form field: reported %Inh of COc1cc(Nc2nccc(N3CCC(NS(=O)(=O)c4ccc(NC(C)=O)cc4)CC3)n2)cc(OC)c1OC [GSK1379825]
(A) 84

(Q) Form field: reported %Inh of Nc1ncc(-c2ccc3nccc(-c4ccncc4)c3c2)cc1S(=O)(=O)N1CCCCC1 [GSK1693850]
(A) 12

(Q) Form field: reported %Inh of Cc1cccc(Nc2nc(NCCN)ncc2C(N)=O)c1 [GSK1292139]
(A) 95.8

---

- System: LRRK2
- protocol conditions: concentration: 1 μM, replicates: in singlicate; n = 1
Listing: %Inh of selected compounds

Recorded %Inh, per entry:
>>> print(df.to_string())
                                   compound  result
0  Cl.Cl.NCC(NC(=O)c1cc(-c2cccnc2)c(-c2ccnc3[nH]ccc23)s1)c1ccccc1 (centres unmarked) [GSK1323434]      0%
1  COc1cccc(C2=C(Nc3cccc(O)c3)C(=O)NC2=O)c1 [SB-390771]      0%
2  CC(=O)Nc1cn2nc(Oc3cccc(NC(=O)c4cccc(C(F)(F)F)c4)c3)ccc2n1      8%
3  CC(C)NCC(Cc1ccccc1)NC(=O)c1cc(Br)c(-c2ccnc3[nH]ccc23)s1.Cl.Cl (centres unmarked) [GSK1383281]      0%
4  Cc1ccc(-c2ccc3occ(-c4ccc(S(C)=O)cc4)c3c2)nn1 (centres unmarked)      0%

(Q) Form field: reported %Inh of Cc1ccc(O)cc1Nc1ccnc2cc(-c3ccc(CN4CCCCC4)o3)ccc12 [GW557777]
(A) 19%

(Q) Form field: reported %Inh of Cc1ccc(C)c(NC(=O)Nc2ccc(C)c(-c3ccc(C(=O)Nc4ccncc4)cc3)c2)c1 [GSK1398473]
(A) 0%

(Q) Form field: reported %Inh of CN(c1ccc(NC(=O)N2CCN(CCCN3CCOCC3)CC2)cc1)c1ccnc(Nc2ccc(CS(C)(=O)=O)cc2)n1.Cl [GW830899]
(A) 0%

---

- Test system: MKK7
- protocol conditions: concentration: 1 μM, replicates: in singlicate; n = 1
Listing: %Inh of selected compounds
Return type: number; implicit unit %.

Recorded %Inh, per entry:
In [3]: df
Out[3]:
                         structure_notation  unit_descriptor  quantitative_result
0  Nc1ncnc2scc(-c3ccc(NC(=O)Cc4cc(F)ccc4F)cc3)c12.O=C(O)C(F)(F)F                %                    0
1  COc1cccc(NC(=O)NCCNc2ccnc(Nc3ccc(F)cc3)n2)c1                %                   30
2  CSc1ccc(NC2=C(c3ccc(Cl)cc3)C(=O)NC2=O)cc1                %                    0

(Q) Form field: reported %Inh of Cc1ccc(Nc2ccnc(Nc3ccc(C)c(F)c3)n2)cc1O.Cl
(A) 0

(Q) Form field: reported %Inh of COc1ccc(NC(=O)c2ccoc2)cc1-c1ccc(C(=O)NCC2CC2)cc1
(A) 0

(Q) Form field: reported %Inh of O=C(Nc1n[nH]c2cc(-c3cccs3)ccc12)C1CC1
(A) 0

(Q) Form field: reported %Inh of Fc1cc(Cl)ccc1Nc1ccnc2cc(-c3ccc(CN4CCSCC4)o3)ccc12
(A) 0
